B1: TPR 5TU (parent)
chain: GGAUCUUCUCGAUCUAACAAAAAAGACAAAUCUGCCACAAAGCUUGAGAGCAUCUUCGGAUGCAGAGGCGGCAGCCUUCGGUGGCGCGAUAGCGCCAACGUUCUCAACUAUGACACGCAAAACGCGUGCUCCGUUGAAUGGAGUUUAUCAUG

variants of: B1; experiment: polymerase ribozyme fitness, log enrichment relative to wild type (log ratio); higher = more active; in vitro selection for triplet polymerase activity
Fewer inactive variants are shown than the library holds.

| Mutation List | polymerase ribozyme fitness (log ratio) |
| --- | --- |
| C36U A37U A73G A91U C149U G152U | ≤ -4.2 |
| C51U A66C G74A U90G U111G | ≤ -4.2 |
| A12G U33C A73G U130G | -3.56 |
| C93U C116U G141A | -0.0845 |
| U15G U55A | -0.257 |
| A22G A23U U53G C57A G84U C114U C129U | ≤ -4.2 |
| A22C A39G U144C | -4.03 |
| C36U A142C | -2.05 |
| A12C C76A A91U | ≤ -4.2 |
| C72U G124A U146G | -1.3 |
| A21U U31A C85A | -0.251 |
| A17C C76U C93G U102G C105A | ≤ -4.2 |
| G59U A60C G83A C116U C118G | -2.5 |
| C63U G80A A97G A110G | -4.19 |
| A28G U33G G34U G59C U104G C118U | ≤ -4.2 |
| C14G A52C G58A C96U C125G | -3.92 |
| A26C A52C | -3.22 |
| A17G A28U C32U A39U C57A C95A A110G U144C A147G A150C | ≤ -4.2 |
| A17C G34U C51U C57A G86A | -4.06 |
| A12U A40C G92A C118G | -3.87 |
| G25A C35U G84A C87A A91U C118U A142G | ≤ -4.2 |
| G11U A39U C57U G70A U101G | ≤ -4.2 |
| A73C | -2.13 |
| G86A G100A | -3.89 |
| C14G G42U G46C G92C A119U G128A | ≤ -4.2 |
| A40U G92A A98U U145G A147U | -4.09 |
| U44G A73G A91G A107C | ≤ -4.2 |
| A39G C87A C108U U135C | ≤ -4.2 |
| G81U G84U | -2.19 |
| G81C G84A A115C G133U C149U | ≤ -4.2 |
| A91G C123G | -2.82 |
| A26G U53A C85U A91G G133A U139A | ≤ -4.2 |
| A3G A24U C69G C93G A119G C132G U139A | ≤ -4.2 |
| U31C G94C C105A | -1.61 |
| A20G C38G C69U G86U A91U C99G A137G | ≤ -4.2 |
| A39G C87U | -2.33 |
| G71A U144A A147C | ≤ -4.2 |
| C63U A73G | -0.225 |
| A60G G74A | -3.26 |
| A12G A89G | -1.16 |
| A47C U56C G68A C125U | -4.09 |
| U31C C32A G80C G81A A115C C118G G133A | ≤ -4.2 |
| A17G U31C C35G G86A A121U | -4.19 |
| C8A C14G U55A C85U G88U A138U | ≤ -4.2 |
| U61A C76U U102G U109C | ≤ -4.2 |
| A41U G92U | -1.05 |
| C35U A60G C79U G86C C93G G94A U104C | ≤ -4.2 |
| A3U A16C A20C A47U U53G G86A A110G | ≤ -4.2 |
| C32G C87A A107G | ≤ -4.2 |
| C27U C32A G46U A47C U53A C87G | ≤ -4.2 |
| G25A | -1.62 |
| U4C A21G G42A G48C G50C A64U G84C U102G U127A | ≤ -4.2 |
| C85G C118A A142U | -2.93 |
| C36A A39G G59U C85A A98U A107C | ≤ -4.2 |
| G68A C75A U77A C95A A97G | ≤ -4.2 |
| A21U C63U G84A | -0.545 |
| U4G C57A A73G C87U | -0.214 |
| U31G A40U G48A G84A C87U A119U | ≤ -4.2 |
| U53G C125U | -1.66 |
| C85A G141A | -1.85 |
| U45A A52G C63G A64U G70C A89C U101G C116A | ≤ -4.2 |
| A3G A12C C76G C93A C96A G136C | ≤ -4.2 |
| A22U A47G U56C G92C C105U | -3.13 |
| U101G A120G | -0.0391 |
| A24G G25A G84A C125G G152A | ≤ -4.2 |
| U56G G59U C87A | ≤ -4.2 |
| A37G A60U G81A A97C A137G | -4.19 |
| C51A A52G U56G C79A | ≤ -4.2 |
| C43U G74C C93G U146A | ≤ -4.2 |
| C14G G83A | -2.42 |
| C38U U45G U55A A60U G71A | ≤ -4.2 |
| C51U G94U | -1.45 |
| C14G A39G A49U U56A G81U | ≤ -4.2 |
| C36A C76U | ≤ -4.2 |
| G67A C87U | -4.13 |
| G94U U151A | ≤ -4.2 |
| A30U C35U G84A | -4.19 |
| A121U G143C | -1.7 |
| C96U A97U | -0.832 |
| C32G C76G G84C C118U C132G G133C | ≤ -4.2 |
| A17U C51G G83A U134C | -3.2 |
| U135A | -0.939 |
| A39U U144C | -2.52 |
| G62U C63U G68A C95A C103A | ≤ -4.2 |
| A39G U109C U144A | -3.59 |
